These data points were gathered from patent US6166066A.

Reported Ki, CB2 receptor (Mus musculus, UniProt P47936).
Quick note: give the figure in nM, leave out the unit.

Solved entries (count: 4):
{"columns": ["molecule", "unit_name", "Ki"],
 "data": [
  ["CC1=CCC2C(C1)c1c(cc3c(c1O)C1CC(CCC1C)C3(C)C)OC2(C)C (centres unmarked) [AM725]", "nM", 281],
  ["CCCCCCC1CCc2cc(O)c3c(c2C1)OC(C)(C)C1CC=C(C)CC31 (centres unmarked)", "nM", 58.6],
  ["CCCCCC1CCc2c(cc3c(c2O)C2CC(C)=CCC2C(C)(C)O3)C1 (centres unmarked)", "nM", 162],
  ["CC1=CCC2C(C1)c1c(cc3c(c1O)C1CC(CCC1C)C3(C)C)OC2(C)C (centres unmarked) [AM724]", "nM", 16.9]
]}

Next:
Challenge: Could you share what Ki was measured for CCCCCCC1CCCc2c1cc(O)c1c2OC(C)(C)C2CC=C(C)CC12 (centres unmarked) , tested on CB2 receptor (Mus musculus, UniProt P47936)?
Response given: 456
